experimental.target: T1, hKLRF1 (human, UniProt Q9NZS2 1-231)
T1 construct: Overexpressed on HEK293 cells
T1 sequence: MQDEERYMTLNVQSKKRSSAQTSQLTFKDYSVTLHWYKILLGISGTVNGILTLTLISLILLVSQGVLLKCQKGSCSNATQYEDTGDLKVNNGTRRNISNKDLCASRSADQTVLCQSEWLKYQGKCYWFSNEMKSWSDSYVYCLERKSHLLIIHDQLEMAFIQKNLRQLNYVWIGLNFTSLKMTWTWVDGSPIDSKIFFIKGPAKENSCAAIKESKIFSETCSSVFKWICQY
assay.name: flow cytometry, HEK293 transfectants, 100 nM antibody;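 note: antibody applied at a saturating level and incubated with cells for 30 min at room temperature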
endpoint: % of CD161 binding (%)

>  <binder>
Ab6 (antibody, human IgG1, V domains shown, IgG purified from yeast culture) VH: EVQLLESGGGLVQPGGSLRLSCAASGFTFGQYAMSWVRQAPGKGLEWVSAISAAGGTTYYADSVKGRFTISRDNSKNTLYLQMNSLRAEDTAVYYCAKPLDSSQWADFDLWGRGTLVTVSS VL: DIQLTQSPSSVSASVGDRVTITCRASQGISSWLAWYQQKPGKAPKLLIYAASSLQSGVPSRFSGSGSGTDFTLTINSLQPEDFATYYCQQAWVLPITFGGGTKVEIK

>  <numeric.readout>
0.036

$$$$
>  <binder>
Ab15 (antibody, human IgG1, V domains shown, IgG purified from yeast culture) VH: QVQLVESGGGLVKPGGSLRLSCAASGFTFPQYYMSWIRQAPGKGLEWVSYISPSGATIYYADSVKGRFTISRDNAKNSLYLQMNSLRAEDTAVYYCARSLMSTGTHLYFDLWGRGTLVTVSS VL: DIQLTQSPSSVSASVGDRVTITCRASQGISSWLAWYQQKPGKAPKLLIYAASSLQSGVPSRFSGSGSGTDFTLTISSLQPEDFATYYCQQVTSTPPYTFGGGTKVEIK

>  <numeric.readout>
0.114

$$$$

The reported measurements were obtained from patent US20250243281A1.
